B1: LOXL2 (parent)
chain: RLLRFSSQIHNNGQSDFRPKNGRH

# Variants of: B1
# test.details: protein stability index of a GFP-peptide fusion (GPS, HEK-293T) (PSI 1-6); higher = more stable;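 further: lentivirally expressed fusions sorted by FACS into six bins by GFP to DsRed ratio, PSI derived from sequencing read proportions per bin multiplied by bin number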
# conditions: c terminus: a fixed tail appended
measurement.name: protein stability index
Give bare numbers.

// worked examples, protein stability index included
mutation.notation	protein stability index
R1G	3.12
S15F	2.28
G13L	2.39
K20N	2.92
R23K	2.8

Tell me the measured protein stability index of `R4Y` , please.
2.66
